experiment: Efflux ratio of permeability in human Caco2 cells; type: ADME, cell-based; details: caco-2
Could you please mark yes for values of efflux ratio below 1 and no for values at or above it?

INSERT INTO results (compound, discrete_label) VALUES
  ('CCCN1C[C@H]2OC[C@@H]1C[C@H]2c1ccccc1OC', 'yes'),
  ('CCCN1C[C@H]2OC[C@@H]1C[C@@]2(O)c1ccccc1OC', 'no'),
  ('CCCN1[C@@H]2COC[C@H]1CN(c1ccccc1OC)C2', 'yes'),
  ('CCCN1[C@H]2CC[C@H]1CC(O)(c1ccccc1OC)C2 (relative stereo)', 'no'),
  ('CCCN1[C@H]2CC[C@H]1CC(c1ccccc1OC)C2 (relative stereo; 8a)', 'no');

----------
Reported values of inhibition for individual entries
biological target: D(2) dopamine receptor (Homo sapiens); test: Antagonist activity at human D2L receptor expressed in CHOK1 cells assessed as inhibition of dopamine-induced calcium flux at 10 uM by fluorescence assay relative to control; format: functional, cell-based
QUANTITY_KIND: inhibition (%)

INSERT INTO results (molecule, reading) VALUES
  ('CCCN1[C@H]2CC[C@H]1CC(c1cccc(OC)c1)C2 (relative stereo)', 13),
  ('CCCN1[C@H]2COC[C@H]1CC(c1ccccc1OC)C2 (relative stereo; 16)', 34),
  ('CCCN1[C@H]2CC[C@H]1CC(c1ccc(OC)c(OC)c1)C2 (relative stereo)', 11),
  ('CCCN1[C@H]2CC[C@H]1CC(c1ccccc1OC)C2 (relative stereo; 4)', 22),
  ('CCCN1[C@@H]2COC[C@H]1CN(c1ccccc1OC)C2', 5),
  ('CCCN1CCN(c2ccccc2OC)CC1', -1),
  ('CCCN1[C@H]2CC[C@H]1CC(c1ccccc1OC)C2 (relative stereo; 8a)', 29),
  ('CCCN1C[C@H]2OC[C@@H]1C[C@H]2c1ccccc1OC', 13),
  ('CCCN1[C@H]2CC[C@H]1CC(c1cc(OC)c(OC)c(OC)c1)C2 (relative stereo)', 8),
  ('CCCN1CCC(c2ccccc2OC)CC1', 14),
  ('CCCN1[C@H]2COC[C@H]1CC(c1ccccc1OC)C2 (relative stereo; 20)', 12),
  ('CCCN1C[C@H]2OC[C@@H]1C[C@]2(O)c1ccccc1OC', 16),
  ('CCCN1[C@H]2CC[C@H]1CC(c1ccc(OC)cc1)C2 (relative stereo)', 9),
  ('CCCN1C[C@H]2OC[C@@H]1C[C@@]2(O)c1ccccc1OC', 4);

----------
target: UniProt P14416; assay: Agonist activity at human D2L receptor expressed in CHOK1 cells assessed as inhibition of receptor response at 10 uM by calcium flux assay relative to control; format: functional, cell-based
Sequence (P14416 whole entry): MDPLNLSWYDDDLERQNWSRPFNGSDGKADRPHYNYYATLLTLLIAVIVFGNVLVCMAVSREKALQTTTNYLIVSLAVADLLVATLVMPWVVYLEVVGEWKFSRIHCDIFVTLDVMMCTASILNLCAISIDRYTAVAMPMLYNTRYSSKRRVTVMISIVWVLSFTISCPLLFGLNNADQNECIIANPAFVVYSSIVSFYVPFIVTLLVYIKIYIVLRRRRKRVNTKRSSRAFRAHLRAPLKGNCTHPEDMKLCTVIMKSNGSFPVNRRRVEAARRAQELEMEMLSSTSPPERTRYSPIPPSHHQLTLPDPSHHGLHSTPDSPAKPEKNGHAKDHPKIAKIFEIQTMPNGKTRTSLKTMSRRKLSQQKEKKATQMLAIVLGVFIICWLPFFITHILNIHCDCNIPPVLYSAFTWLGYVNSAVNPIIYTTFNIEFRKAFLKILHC
QUANTITY_KIND: inhibition (%)

INSERT INTO results (molecule, reading) VALUES
  ('CCCN1[C@H]2CC[C@H]1CC(c1ccccc1OC)C2 (relative stereo; 8a)', 35),
  ('CCCN1[C@H]2CC[C@H]1CC(c1ccc(OC)cc1)C2 (relative stereo)', 40),
  ('CCCN1[C@H]2CC[C@H]1CC(c1cc(OC)c(OC)c(OC)c1)C2 (relative stereo)', 4),
  ('CCCN1[C@H]2CC[C@H]1CC(c1ccc(OC)c(OC)c1)C2 (relative stereo)', 20),
  ('CCCN1[C@H]2COC[C@H]1CC(c1ccccc1OC)C2 (relative stereo; 16)', 11);
